Structures can show the parent of a compound that is named as a salt.
Observed IC50, system UniProt:P35462.
Sequence (P35462 whole entry): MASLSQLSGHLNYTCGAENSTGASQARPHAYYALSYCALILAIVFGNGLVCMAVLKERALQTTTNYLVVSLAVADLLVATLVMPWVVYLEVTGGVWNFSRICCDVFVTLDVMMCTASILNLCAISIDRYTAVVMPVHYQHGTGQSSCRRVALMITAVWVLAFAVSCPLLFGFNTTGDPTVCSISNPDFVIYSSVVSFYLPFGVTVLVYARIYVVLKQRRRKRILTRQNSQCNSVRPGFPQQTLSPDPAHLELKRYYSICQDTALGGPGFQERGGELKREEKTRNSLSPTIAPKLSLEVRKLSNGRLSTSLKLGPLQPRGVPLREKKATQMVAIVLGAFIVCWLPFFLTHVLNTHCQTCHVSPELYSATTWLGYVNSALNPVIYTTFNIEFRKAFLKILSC

input: Given the compound CCN1CCCC1c1ccc(-c2cc(S(=O)(=O)Oc3ccccc3)ccc2OC)[nH]1 (racemic) [Example 2, hydrochloride] , what is its reported IC50?
output: 5 to 20 nM

input: Another compound to check: CCN(Cc1ccccc1)Cc1ccc(-c2cc(S(=O)(=O)Oc3ccccc3)ccc2OC)[nH]1 [Example 3, hydrochloride]
output: 5 to 20 nM

input: Then what about the compound COc1ccc(S(=O)(=O)Oc2ccccc2)cc1-c1ccc(CN2CCCCCC2c2ccccc2)[nH]1 (stereo not drawn) [Example 1, hydrochloride] ?
output: 5 to 20 nM
